Target: BACE1 (Homo sapiens)
Construct: endogenous in cells
Sequence (P56817 46-501): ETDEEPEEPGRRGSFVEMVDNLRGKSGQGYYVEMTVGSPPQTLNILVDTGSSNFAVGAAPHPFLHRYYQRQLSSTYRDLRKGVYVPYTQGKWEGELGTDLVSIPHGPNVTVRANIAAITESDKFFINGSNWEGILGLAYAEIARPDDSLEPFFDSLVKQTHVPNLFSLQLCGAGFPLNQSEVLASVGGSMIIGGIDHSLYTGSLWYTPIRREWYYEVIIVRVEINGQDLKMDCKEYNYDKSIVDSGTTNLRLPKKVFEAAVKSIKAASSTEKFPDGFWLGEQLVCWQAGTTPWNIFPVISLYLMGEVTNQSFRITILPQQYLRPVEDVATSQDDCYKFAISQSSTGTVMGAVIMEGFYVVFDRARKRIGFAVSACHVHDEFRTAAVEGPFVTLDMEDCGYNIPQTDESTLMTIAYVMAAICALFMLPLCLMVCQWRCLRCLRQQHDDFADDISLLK
Experiment: Cellular BACE1 Inhibition Assay (in vitro cellular Amyloidβ 1-40 production assay, HTRF immunoassay)
Just so you know, the groups by IC50 go like this: bottom (below 20 nM), middle (20 nM to below 200 nM), top (200 nM or more)

INSERT INTO results (compound, class_assignment) VALUES
  ('CN1C(=O)C2(CC3(CCC3)Cc3ccc(-c4cccc(Cl)c4)cc32)N=C1N (stereo not shown) [Example 37]', 'top'),
  ('CN1C(=O)C2(CCCc3ccc(-c4cccc(Cl)c4)cc32)N=C1N (stereo not shown) [Example 24]', 'middle'),
  ('Cc1nc(C(=O)Nc2ccc3c(c2)C2(COC(N)=N2)CC(C)(C)C3)co1 (stereo not shown) [Example 90]', 'bottom'),
  ('CC1CCc2ccc(-c3cccc(Cl)c3)cc2C12N=C(N)N(C)C2=O (stereo not shown) [Example 21]', 'top'),
  ('CN1C(=O)C2(N=C1N)c1cc(-c3cccnc3F)ccc1CC(C)(C)C2F (stereo not shown) [Example 156]', 'bottom'),
  ('Cc1cc(C(=O)Nc2ccc3c(c2)C2(CCSC(N)=N2)CC(C)(C)C3)c(C)o1 (stereo not shown) [Example 95]', 'top'),
  ('Cc1cnc(F)c(-c2ccc3c(c2)C2(CC(C)(C)C3)N=C(N)N(C)C2=O)c1 (stereo not shown) [Example 135]', 'bottom'),
  ('CC1CCc2ccc(-c3cc(F)cc(Cl)c3)cc2C12N=C(N)N(C)C2=O (stereo not shown) [Example 56]', 'top'),
  ('CN1C(=O)[C@@]2(N=C1N)c1cc(-c3cccc(Cl)c3)ccc1CC[C@@H]2CC1CCN(CC(F)F)CC1 [Example 62]', 'top'),
  ('CC1CCc2ccc(-c3cccc(OC(F)F)c3)cc2C12N=C(N)N(C)C2=O (stereo not shown) [Example 57]', 'top'),
  ('CN1C(=O)CC2(CC(C)(C)Cc3ccc(-c4cccnc4F)cc32)N=C1N (stereo not shown) [Example 96]', 'top'),
  ('CN1C(=O)C2(CC(C)(C)Cc3ccc(C#CC4CC4)cc32)N=C1N (stereo not shown) [Example 17]', 'middle'),
  ('CN1C(=O)C2(CC(C)(C)Cc3ccc(-c4cccc(Cl)c4)nc32)N=C1N (stereo not shown) [Example 20]', 'top'),
  ('CC(C)CCc1ccc2c(c1)C1(N=C(N)N(C)C1=O)C(C)CC2 (stereo not shown) [Example 22]', 'top'),
  ('CN1C(=O)C2(CC3(CCOCC3)Cc3ccc(/C=C/C(C)(C)C)cc32)N=C1N (stereo not shown) [Example 45]', 'middle'),
  ('CN1C(=O)C2(N=C1N)c1cc(-c3cccnc3F)ccc1CC(C)(C)C2(F)F (stereo not shown) [Example 159]', 'middle'),
  ('COc1ccnc(-c2ccc3c(c2)C2(CC(C)(C)C3)N=C(N)N(C)C2=O)c1 (stereo not shown) [Example 137]', 'bottom'),
  ('Cc1cncc(-c2ccc3c(c2)C2(CC(C)(C)C3)N=C(N)N(C)C2=O)c1 (stereo not shown) [Example 131]', 'bottom'),
  ('CN1C(=O)C2(CCCc3ccc(-c4cncnc4)cc32)N=C1N (stereo not shown) [Example 25]', 'middle'),
  ('CC1(C)Cc2ccc(NC(=O)c3ccc(Br)cn3)cc2C2(COC(N)=N2)C1 (stereo not shown) [Example 88]', 'middle'),
  ('CN1C(=O)[C@]2(C[C@@](C)(Cc3ccccc3)Cc3ccc(-c4cncc(Cl)c4)cc32)N=C1N [Example 147]', 'bottom'),
  ('CN1C(=O)[C@]2(N=C1N)c1cc(-c3cncnc3)ccc1C[C@]1(C)CC12 (single isomer, unassigned) [Example 155]', 'middle'),
  ('CN1C(=O)[C@]2(C[C@@](C)(CO)Cc3ccc(-c4cc(F)cc(Cl)c4)cc32)N=C1N [Example 144]', 'bottom'),
  ('CN1C(=O)C2(N=C1N)c1cc(-c3cccc(Cl)c3)ccc1CCC21CCOCC1 (stereo not shown) [Example 35]', 'middle'),
  ('CN1C(=O)C2(N=C1N)c1cc(-c3cncnc3)ccc1CC(C)(C)C2(F)F (stereo not shown) [Example 160]', 'middle'),
  ('CN1C(=O)C2(N=C1N)c1cc(-c3cncnc3)ccc1CCC2(C)C (stereo not shown) [Example 27]', 'bottom'),
  ('CN1C(=O)C2(N=C1N)c1cc(-c3cccc(C#N)c3)ccc1CCC2(C)C (stereo not shown) [Example 28]', 'middle'),
  ('CN1C(=O)[C@@]2(N=C1N)c1cc(-c3cccc(Cl)c3)ccc1CC[C@H]2CC1CCN(CC(F)F)CC1 [Example 32]', 'middle'),
  ('CN1C(=O)C2(N=C1N)c1cc(-c3cncc(Cl)c3)ccc1CC(C)(C)C2F (stereo not shown) [Example 158]', 'bottom'),
  ('CN1C(=O)C2(CC(C)(C)Cc3ccc(-c4cc(C(F)(F)F)ccn4)cc32)N=C1N (stereo not shown) [Example 139]', 'bottom'),
  ('CN1C(=O)C2(CC(C)(C)Cc3ccc(C#CCCCC#N)cc32)N=C1N (stereo not shown) [Example 18]', 'middle'),
  ('CC1(C)Cc2ccc(-c3cncnc3)cc2C2(CSC(N)=N2)C1 (stereo not shown) [Example 109]', 'top'),
  ('CN1C(=O)C2(CC(C)(C)Cc3ccc(-c4cncc(C#N)c4)cc32)N=C1N (stereo not shown) [Example 134]', 'bottom');
